// data source = PubChem BioAssay AID1159580

- protocol_details: chemical genetic growth profiling, strain panel (AID 1159580);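 further: tested at 20 µM; growth read once vehicle control cultures reached saturation at 30 °C; 1 = growth at the plate median or of vehicle wells; lower values mean less growth of the strain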
- condition: S. cerevisiae deletion strains, growth OD, locus YDR502C, strain sam2
About 2,000 (36%) of roughly 5,500 compounds were called active. Another 18% or so got no clear call; they are omitted. No stated cut-off is given here; in the data, active means normalized growth mostly below about 0.91 (no sharp cut-off); inconclusive means no clear call, values can overlap the other calls; inactive means mostly above about 0.92. Some of the results follow.
Give your call using only these classes: Y = active, N = inactive

# count of solved cases: 3
>>> class_label("CC1(C)C(=O)C=C[C@@]2(C)C1CC(=O)[C@]1(C)C2CC[C@@]2(C)[C@H](c3ccoc3)OC(=O)[C@H]3O[C@]321 (some centres undefined)")
"N"
>>> class_label("C[C@@H]1CC[C@@]2(OC1)OC1CC3C4CC=C5C[C@@H](O)CC[C@]5(C)C4CC[C@]3(C)C1[C@@H]2C (some centres undefined)")
"N"
>>> class_label("C[C@]12CCC3c4ccc(O)cc4CCC3C1CC[C@@H]2O (some centres undefined)")
"N"

Now look at this entry.
Req: Query: recorded result category for C[C@@H]1CC[C@@]2(NC1)O[C@H]1C[C@H]3C4CC=C5C[C@@H](O)CC[C@]5(C)C4CC[C@]3(C)C1[C@@H]2C (some centres undefined) in this test
Resp: Y

---

- protocol_details: chemical genetic growth profiling, strain panel (AID 1159580);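 further: tested at 20 µM; growth read once vehicle control cultures reached saturation at 30 °C; 1 = growth at the plate median or of vehicle wells; lower values mean less growth of the strain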
- condition: S. cerevisiae deletion strains, growth OD, locus YER111C, strain swi4
Out of some 5,500 compounds screened, about 2,000 (36%) were called active. About 18% were inconclusive and are not listed. Rule as the data show it: active = normalized growth mostly below about 0.91 (no sharp cut-off); inconclusive = no clear call, values can overlap the other calls; inactive = mostly above about 0.92. This is one part of the list.
Give your call using only these classes: TRUE (active), FALSE (inactive)

>>> class_label("CC(C)N(CCC(C(N)=O)(c1ccccc1)c1ccccn1)C(C)C (centres undefined)")
"TRUE"

Req: Query: recorded result category for `Cc1cc(C2CCCCC2)n(O)c(=O)c1` in this test
Resp: TRUE

Req: Query: recorded result category for CC1(C)C(=O)C=C[C@@]2(C)C1C[C@@H](O)[C@]1(C)C2CC[C@@]2(C)[C@H](c3ccoc3)OC(=O)[C@H]3O[C@]321 (some centres undefined) in this test
Resp: FALSE

Req: Query: recorded result category for CC(CC(O)C1OC1(C)C)[C@@H]1CCC2(C)C3=CCC4C(C)(C)C(=O)CCC4(C)C3CC[C@@]12C (some centres undefined) in this test
Resp: FALSE

---

Entries and their normalized growth values follow.
- protocol_details: chemical genetic growth profiling, strain panel (AID 1159580);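 further: tested at 20 µM; growth read once vehicle control cultures reached saturation at 30 °C; 1 = growth at the plate median or of vehicle wells; lower values mean less growth of the strain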
- condition: S. cerevisiae deletion strains, growth OD, locus YPL256C, strain CLN2, active compounds read low
Out of some 5,500 compounds screened, about 2,000 (36%) were called active. Another 18% or so got no clear call; they are omitted. Some of the results follow.
Give only the figure.

>>> endpoint_value("CC1(C)C(=O)C=C[C@@]2(C)C1CC(=O)[C@]1(C)C2CC[C@@]2(C)[C@H](c3ccoc3)OC(=O)[C@H]3O[C@]321 (stereo partly drawn)")
0.987
>>> endpoint_value("CCN[C@@H]1C[C@H](N)[C@@H](O[C@H]2OC(CN)=CC[C@H]2N)[C@H](O)[C@H]1OC1OC[C@](C)(O)[C@H](NC)[C@H]1O (stereo partly drawn)")
0.963
>>> endpoint_value("C=C(C)[C@H]1COc2cc3oc(=O)ccc3cc2O1")
1.03
>>> endpoint_value("CN[C@@H]1C(O)[C@@H](O[C@@H]2[C@@H](O)[C@H](O[C@H]3OC(CN)=CC[C@H]3N)[C@@H](N)C[C@H]2N)OC[C@]1(C)O (stereo partly drawn)")
0.96
>>> endpoint_value("CC(=O)NC(Cc1ccccc1)C(=O)O (stereo not drawn)")
0.984

Consider `O=S(=O)(CS(=O)(=O)Oc1ccc(Cl)c(Cl)c1)Oc1ccc(Cl)c(Cl)c1` . Its measured normalized growth is 0.945

Consider `CC[n+]1c(-c2ccccc2)c2cc(N)ccc2c2ccc(N)cc21` . Its measured normalized growth is 0.855

Consider CN[C@@H]1[C@@H](O)C(OC2[C@@H](N)C[C@@H](N)[C@H](O[C@H]3O[C@H](C(C)O)[C@@H](O)[C@H](O)[C@H]3N)[C@H]2O)OC[C@]1(C)O (stereo partly drawn) . Its measured normalized growth is 1.02
